# Test system: Escherichia coli TOP10
# experiment: shrunken log2 fold change of peptide-encoding DNA abundance (4.5 h post-induction vs induction); higher = less antimicrobial activity (less host growth inhibition)
# experimental-context: time post-induction: 4.5 h; library: site-saturation at positions 5, 18, 19, 20
measured-parameter: shrunken log2 fold change
Answers are plain numbers.

Completed entries (count: 8):
RRIRNRPPRLPRPRPRPLCCPRP; -0.371
RRIRNRPPRLPRPRPRPHYMPRP; -0.389
RRIRSRPPRLPRPRPRPIDPPRP; 0.017
RRIRQRPPRLPRPRPRPFKTPRP; -0.0381
RRIRKRPPRLPRPRPRPPMCPRP; 0.389
RRIRYRPPRLPRPRPRPGHEPRP; -0.18
RRIRCRPPRLPRPRPRPECQPRP; 0.511
RRIRLRPPRLPRPRPRPQRCPRP; 0.487

Record shrunken log2 fold change per entry; entries follow.
1. RRIRGRPPRLPRPRPRPLELPRP
2. RRIRKRPPRLPRPRPRPSWKPRP
3. RRIRMRPPRLPRPRPRPYCDPRP
4. RRIRWRPPRLPRPRPRPEAEPRP
5. RRIRHRPPRLPRPRPRPTNAPRP
6. RRIRHRPPRLPRPRPRPCPAPRP
7. RRIRERPPRLPRPRPRPCYGPRP

Output line:
[0.741, 0.0521, -0.556, 1.53, -0.463, -0.231, -0.274]

Record shrunken log2 fold change per entry; entries follow.
1. RRIRLRPPRLPRPRPRPIEKPRP
2. RRIRRRPPRLPRPRPRPYCAPRP
3. RRIRARPPRLPRPRPRPTSNPRP
4. RRIRQRPPRLPRPRPRPCIYPRP

Output line:
[0.000506, -0.0524, 0.00789, -0.204]

Record shrunken log2 fold change per entry; entries follow.
1. RRIRVRPPRLPRPRPRPVQFPRP
2. RRIRPRPPRLPRPRPRPHAMPRP

Output line:
1: -0.488; 2: -0.0838

Input line: Sample RRIRRRPPRLPRPRPRPSYQPRP — what was its shrunken log2 fold change?
Output line: -0.141

----------
Please provide measured shrunken log2 fold change for the entries that follow.
# Test system: Escherichia coli TOP10;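 further: peptides expressed intracellularly from a pBAD plasmid library in pooled LB shake-flask culture, induced with 0.3% L-arabinose, DNA abundance read by NGS, three biological replicates, DESeq2 with apeglm shrinkage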
# experiment: shrunken log2 fold change of peptide-encoding DNA abundance (4.5 h post-induction vs induction); higher = less antimicrobial activity (less host growth inhibition)
# experimental-context: time post-induction: 4.5 h; library: site-saturation at positions 5, 18, 19, 20
One number for each entry.

RRIRARPPRLPRPRPRPSVGPRP; 0.324

Record shrunken log2 fold change per entry; entries follow.
1. RRIRWRPPRLPRPRPRPTGFPRP
2. RRIRERPPRLPRPRPRPCPYPRP
3. RRIRMRPPRLPRPRPRPEWPPRP
4. RRIRRRPPRLPRPRPRPKKPPRP
5. RRIRQRPPRLPRPRPRPHIYPRP

Output line:
1: 0.645; 2: -0.367; 3: 0.0994; 4: 0.974; 5: -0.0139

Record shrunken log2 fold change per entry; entries follow.
1. RRIRDRPPRLPRPRPRPLRTPRP
2. RRIRPRPPRLPRPRPRPSWAPRP

Output line:
1: 0.215; 2: 0.0666

Record shrunken log2 fold change per entry; entries follow.
1. RRIRNRPPRLPRPRPRPFGNPRP
2. RRIRGRPPRLPRPRPRPCYQPRP
3. RRIRVRPPRLPRPRPRPNMVPRP

Output line:
[0.0247, 0.219, -0.201]
